Give measured Efficacy for each item. Keep answers brief.
Molecular target: Progesterone receptor (Homo sapiens) (UniProt P06401)
Sequence (whole entry): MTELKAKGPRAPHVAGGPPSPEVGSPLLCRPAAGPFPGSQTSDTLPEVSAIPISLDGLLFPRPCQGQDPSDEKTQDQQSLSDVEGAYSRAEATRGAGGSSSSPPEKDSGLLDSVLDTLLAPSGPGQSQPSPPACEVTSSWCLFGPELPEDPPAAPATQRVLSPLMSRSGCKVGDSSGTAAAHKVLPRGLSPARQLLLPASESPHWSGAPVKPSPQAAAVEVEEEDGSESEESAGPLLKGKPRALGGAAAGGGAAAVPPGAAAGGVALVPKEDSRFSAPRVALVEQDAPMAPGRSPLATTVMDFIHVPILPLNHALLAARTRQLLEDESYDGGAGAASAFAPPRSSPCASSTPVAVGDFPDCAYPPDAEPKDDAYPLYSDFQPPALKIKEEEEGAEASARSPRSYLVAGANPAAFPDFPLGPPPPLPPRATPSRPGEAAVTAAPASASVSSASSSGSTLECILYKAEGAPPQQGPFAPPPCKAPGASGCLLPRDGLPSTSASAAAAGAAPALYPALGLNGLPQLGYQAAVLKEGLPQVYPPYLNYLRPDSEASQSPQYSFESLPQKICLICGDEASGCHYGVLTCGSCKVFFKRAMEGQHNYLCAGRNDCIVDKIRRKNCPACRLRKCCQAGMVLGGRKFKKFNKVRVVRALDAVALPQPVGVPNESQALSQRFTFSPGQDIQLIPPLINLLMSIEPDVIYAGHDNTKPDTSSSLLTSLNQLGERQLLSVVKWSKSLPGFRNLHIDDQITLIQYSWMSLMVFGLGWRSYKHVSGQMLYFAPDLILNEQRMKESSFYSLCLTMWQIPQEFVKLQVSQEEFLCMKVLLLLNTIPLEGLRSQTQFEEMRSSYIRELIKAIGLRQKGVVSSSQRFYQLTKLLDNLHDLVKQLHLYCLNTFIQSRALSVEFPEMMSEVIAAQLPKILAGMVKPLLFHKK
Experiment: Agonist activity at human PRB expressed in CHO cells relative to Org 2058
Format: functional, cell-based
Answers are plain numbers, in %.

Some molecules with known Efficacy results, for comparison:
[[record]]
molecule = "C[C@]12C[C@H](c3ccc(-c4cccnc4)cc3)C3=C4CCC(=O)C=C4CC[C@H]3[C@@H]1CC[C@]2(C)C(=O)C1CC1"
recorded_result = 38

[[record]]
molecule = "C[C@@H]1C[C@H]2[C@@H]3CCC4=CC(=O)CCC4=C3[C@@H](c3ccc(-c4ccc(F)nc4)cc3)C[C@]2(C)[C@H]1C(=O)C1CC1"
recorded_result = 51

[[record]]
molecule = "C=C[C@@H]1C[C@H]2[C@@H]3CCC4=CC(=O)CCC4=C3[C@@H](c3ccc(-c4ccc(OC)nc4)cc3)C[C@]2(C)[C@H]1C(=O)C1CC1"
recorded_result = 41

[[record]]
molecule = "CC[C@@H]1C[C@H]2[C@@H]3CCC4=CC(=O)CCC4=C3[C@@H](c3ccc(-c4cccnc4)cc3)C[C@]2(C)[C@H]1C(=O)C1CC1"
recorded_result = 34

[[record]]
molecule = "COc1ccc(-c2ccc([C@H]3C[C@]4(C)[C@@H](C(=O)C5CC5)CC[C@H]4[C@@H]4CCC5=CC(=O)CCC5=C43)cc2)cn1"
recorded_result = 28

[[record]]
molecule = "C[C@@H]1C[C@H]2[C@@H]3CCC4=CC(=O)CCC4=C3[C@@H](c3ccc(-c4cnccn4)cc3)C[C@]2(C)[C@H]1C(=O)C1CC1"
recorded_result = 54

[[record]]
molecule = "C=C[C@@H]1C[C@H]2[C@@H]3CCC4=CC(=O)CCC4=C3[C@@H](c3ccc(-c4cccnc4)cc3)C[C@]2(C)[C@H]1C(=O)C1CC1"
recorded_result = 47

[[record]]
molecule = "COc1ccc(-c2ccc([C@H]3C[C@@]4(C)[C@@H](C[C@@H](C)[C@@H]4C(=O)C4CC4)[C@@H]4CCC5=CC(=O)CCC5=C43)cc2)cn1"
recorded_result = 42

[[record]]
molecule = "C[C@@H]1C[C@H]2[C@@H]3CCC4=CC(=O)CCC4=C3[C@@H](c3ccc(-c4ccccn4)cc3)C[C@]2(C)[C@H]1C(=O)C1CC1"
recorded_result = 49

[[record]]
molecule = "C[C@@H]1C[C@H]2[C@@H]3CCC4=CC(=O)CCC4=C3[C@@H](c3ccc(-c4ccnnc4)cc3)C[C@]2(C)[C@H]1C(=O)C1CC1"
recorded_result = 51


Dear colleague, could you send me Efficacy for each of the items below? Thanks.
1. C[C@@H]1C[C@H]2[C@@H]3CCC4=CC(=O)CCC4=C3[C@@H](c3ccc(-c4cnc5ccccc5c4)cc3)C[C@]2(C)[C@H]1C(=O)C1CC1
2. C[C@@H]1C[C@H]2[C@@H]3CCC4=CC(=O)CCC4=C3[C@@H](c3ccc(-c4ccc(Cl)nc4)cc3)C[C@]2(C)[C@H]1C(=O)C1CC1
3. C[C@@H]1C[C@H]2[C@@H]3CCC4=CC(=O)CCC4=C3[C@@H](c3ccc(-c4ccncc4)cc3)C[C@]2(C)[C@H]1C(=O)C1CC1

### Response
1: 50; 2: 47; 3: 56

Dear colleague, could you send me Efficacy for each of the items below? Thanks.
1. C[C@]12C[C@H](c3ccc(-c4cccnc4)cc3)C3=C4CCC(=O)C=C4CC[C@H]3[C@@H]1CC[C@@H]2C(=O)C1CC1
2. COc1ccc(-c2ccc([C@H]3C[C@@]4(C)[C@@H](CCC45CCCC5=O)[C@@H]4CCC5=CC(=O)CCC5=C43)cc2)cn1 (stereo not given in full)

### Response
1. 36
2. 20

----------
Give measured Efficacy for each item. Keep answers brief.
Target: Progesterone receptor (Homo sapiens) (UniProt P06401)
Assay: Agonist activity at human PRB expressed in CHO cells relative to Org 2058
Format: functional, cell-based
Write your answer as a measured quantity: the number, then the unit.

[[record]]
molecule = "C[C@@H]1C[C@H]2[C@@H]3CCC4=CC(=O)CCC4=C3[C@@H](c3ccc(-c4ncccn4)cc3)C[C@]2(C)[C@H]1C(=O)C1CC1"
recorded_result = "52%"


Dear colleague, could you send me Efficacy for each of the items below? Thanks.
1. CC[C@@H]1C[C@H]2[C@@H]3CCC4=CC(=O)CCC4=C3[C@@H](c3ccc(-c4ccc(OC)nc4)cc3)C[C@]2(C)[C@H]1C(=O)C1CC1
2. C[C@]12C[C@H](c3ccc(-c4cccnc4)cc3)C3=C4CCC(=O)C=C4CC[C@H]3[C@@H]1CCC21CCCC1=O (some centres undefined)
3. C[C@@H]1C[C@H]2[C@@H]3CCC4=CC(=O)CCC4=C3[C@@H](c3ccc(-c4cccnc4)cc3)C[C@]2(C)[C@H]1C(=O)C1CC1

### Response
["42%", "17%", "49%"]

----------
Give measured IC50 for each item. Keep answers brief.
Target: UniProt P06401
Test: Antagonist activity at human PRB expressed in CHO cells assessed as inhibition of Org 2058 induced-transactivation
Type: functional, cell-based
Numbers only, in nM.

[[record]]
compound = "CC(=O)O[C@]1(C(C)=O)CC[C@H]2[C@@H]3CCC4=CC(=O)CCC4=C3[C@@H](c3ccc(N(C)C)cc3)C[C@@]21C [ULIPRISTAL ACETATE]"
tested_on = "UniProt P06401"
property_name = "IC50"
recorded_result = 0.2


Dear colleague, could you send me IC50 for each of the items below? Thanks.
1. COc1ccc(-c2ccc([C@H]3C[C@]4(C)[C@@H](C(=O)C5CC5)CC[C@H]4[C@@H]4CCC5=CC(=O)CCC5=C43)cc2)cn1
2. C=C[C@@H]1C[C@H]2[C@@H]3CCC4=CC(=O)CCC4=C3[C@@H](c3ccc(-c4cccnc4)cc3)C[C@]2(C)[C@H]1C(=O)C1CC1
3. C[C@@H]1C[C@H]2[C@@H]3CCC4=CC(=O)CCC4=C3[C@@H](c3ccc(-c4ccc(Cl)nc4)cc3)C[C@]2(C)[C@H]1C(=O)C1CC1

### Response
1. 0.43
2. 0.61
3. 0.47

Dear colleague, could you send me IC50 for each of the items below? Thanks.
1. C=C[C@@H]1C[C@H]2[C@@H]3CCC4=CC(=O)CCC4=C3[C@@H](c3ccc(-c4ccc(OC)nc4)cc3)C[C@]2(C)[C@H]1C(=O)C1CC1
2. COc1ccc(-c2ccc([C@H]3C[C@@]4(C)[C@@H](CCC45CCCC5=O)[C@@H]4CCC5=CC(=O)CCC5=C43)cc2)cn1 (stereo partly specified)

### Response
0.98
0.55
